# protocol.notes: Lipophilicity, logD of the compound at pH 7.5 by reversed-phase HPLC
# Assay type: physicochemical
# experimental.context: buffer
quantity.measured: chromatographic logD

Worked set:
>>> number("O=C(Nc1cccc(Oc2ccccc2)c1)N1CCc2sccc2C1c1ccc(Cl)cc1 (racemic)")
5.4
>>> number("O=C(Nc1ccc(Oc2ccc(F)cc2)cc1)N1CCc2ncccc2[C@@H]1c1ccc(F)cc1")
3.9
>>> number("O=C(Nc1cc(Cl)cc(Cl)c1)N1CCc2sccc2C1c1ccccc1F (racemic)")
4.8
>>> number("COc1ccc(C2c3ccsc3CCN2C(=O)Nc2ccc(Cl)cc2)cc1 (racemic)")
3.9
>>> number("Cc1ccc(C2c3ccsc3CCN2C(=O)Nc2cc(Cl)cc(Cl)c2)cc1 (racemic)")
5.5

I: O=C(Nc1ccc(F)c(OC(F)(F)F)c1)N1CCc2sccc2C1c1ccc(Cl)cc1 (racemic)
II: COc1ccc(C2c3ccsc3CCN2C(=O)Nc2ccc(F)c(N3CCS(=O)(=O)CC3)c2)cc1 (racemic)
stdin: Between I and II , which one shows the larger chromatographic logD value? Lab log: write the label of the selected item as the result.
stdout: I
(I: 5.2, II: 3.1)

* * *

# experimental.system: Lutropin-choriogonadotropic hormone receptor (Homo sapiens, UniProt P22888)
# Sequence (P22888 whole entry): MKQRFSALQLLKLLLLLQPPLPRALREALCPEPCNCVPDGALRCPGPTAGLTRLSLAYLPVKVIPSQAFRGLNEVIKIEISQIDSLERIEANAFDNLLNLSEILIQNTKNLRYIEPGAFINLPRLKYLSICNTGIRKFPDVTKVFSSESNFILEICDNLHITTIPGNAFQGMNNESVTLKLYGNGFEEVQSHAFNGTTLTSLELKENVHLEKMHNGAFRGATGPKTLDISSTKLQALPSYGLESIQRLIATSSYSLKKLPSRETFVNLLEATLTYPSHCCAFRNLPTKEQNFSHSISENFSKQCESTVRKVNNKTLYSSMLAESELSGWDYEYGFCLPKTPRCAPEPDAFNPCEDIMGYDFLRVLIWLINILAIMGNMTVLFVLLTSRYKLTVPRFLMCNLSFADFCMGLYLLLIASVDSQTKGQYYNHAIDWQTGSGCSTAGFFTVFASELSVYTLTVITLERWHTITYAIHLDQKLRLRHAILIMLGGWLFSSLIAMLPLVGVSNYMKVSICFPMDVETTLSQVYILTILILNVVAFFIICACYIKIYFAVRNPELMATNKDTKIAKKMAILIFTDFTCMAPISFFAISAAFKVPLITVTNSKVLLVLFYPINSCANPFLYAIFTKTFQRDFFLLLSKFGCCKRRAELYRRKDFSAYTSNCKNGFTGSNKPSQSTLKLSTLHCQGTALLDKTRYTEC
# protocol.notes: Antagonist activity at human luteinizing hormone receptor assessed as reduction in agonist-induced cAMP production preincubated for 20 mins followed by agonist solution addition after 60 mins by cell based TR-FRET assay
# Type: functional
pIC50: −log10 of the molar value.
quantity.measured: pIC50

Worked set:
>>> number("O=C(Nc1ccc(F)c(Cl)c1)N1CCc2sccc2C1c1ccc(Cl)cc1 (racemic)")
6.76
>>> number("O=C(Nc1cc(Cl)cc(Cl)c1)N1CCc2sccc2C1c1cccc(F)c1 (racemic)")
5.50
>>> number("COc1ccc(C2c3ccsc3CCN2C(=O)Nc2ccc(F)c(C(N)=O)c2)cc1 (racemic)")
5.77
>>> number("COc1ccc(C2c3ccsc3CCN2C(=O)Nc2cc(OC)cc(OC)c2)cc1 (racemic)")
6.68
>>> number("O=C(Nc1cccc(Oc2ccccc2)c1)N1CCc2sccc2C1c1ccc(Cl)cc1 (racemic)")
6.48

I: O=C(Nc1ccc(Oc2ccc(F)cc2)cc1)N1CCc2sccc2C1c1ccc(Cl)cc1 (racemic)
II: O=C(Nc1cc(Cl)cc(Cl)c1)N1CCc2sccc2C1c1ccc(F)c(F)c1 (racemic)
stdin: # compare pIC50 for I vs II ; return the one with the smaller value Lab log: write the label of the selected item as the result.
stdout: II

I: O=C(Nc1ccccc1)N1CCc2sccc2C1c1ccc(Cl)cc1 (racemic)
II: O=C(Nc1cnc(Oc2ccc(F)cc2)nc1)N1CCc2ncccc2[C@@H]1c1ccc(F)cc1 [BAY-899]
III: O=C(Nc1cc(Cl)cc(Cl)c1)N1CCc2sccc2C1c1cccnc1 (racemic)
IV: O=C(Nc1cc(Cl)cc(Cl)c1)N1CCc2sccc2C1c1ccc(C(F)(F)F)cc1 (racemic)
stdin: Ordering: ascending pIC50. Reply: labels, ordered per the request.
stdout: III, IV, II, I

I: O=C(Nc1cc(Cl)cc(Cl)c1)N1CCc2sccc2C1c1ccc(=O)[nH]c1 (racemic)
II: O=C(Nc1ccc(Oc2ccc(F)cc2)cc1)N1CCc2ncccc2[C@@H]1c1ccc(F)cc1
III: COc1ccc(C2c3ccsc3CCN2C(=O)Nc2cc(Cl)cc(Cl)c2)cc1 (racemic)
IV: O=C(Nc1cc(Cl)cc(Cl)c1)N1CCc2sccc2C1c1ccncc1 (racemic)
stdin: Ordering: ascending pIC50. Reply: labels, ordered per the request.
stdout: IV, I, III, II

* * *

# experimental.system: Lutropin-choriogonadotropic hormone receptor (Homo sapiens)
# protocol.notes: Negative allosteric modulation of human luteinizing hormone receptor assessed as reduction in glycoprotein human luteinizing hormone-induced agonist activity preincubated for 20 mins followed by 1 times EC80 of agonist addition and measured after 60 mins by cell based TR-FRET assay relative to control
quantity.measured: IC50 (nM)
Give a bare numeral; the unit nM is implied.

Entry O=C(Nc1ccc(Oc2ccc(F)cc2)cc1)N1CCc2ncccc2[C@@H]1c1ccc(Cl)cc1 — recorded IC50 = 97

* * *

# experimental.system: Lutropin-choriogonadotropic hormone receptor (Homo sapiens)
# protocol.notes: Negative allosteric modulation of human luteinizing hormone receptor assessed as reduction in glycoprotein human luteinizing hormone-induced agonist activity preincubated for 20 mins followed by 10 times EC80 of agonist addition and measured after 60 mins by cell based TR-FRET assay relative to control
quantity.measured: IC50 (µM)
Give a bare numeral; the unit µM is implied.

Entry O=C(Nc1ccc(Oc2ccc(F)cc2)cc1)N1CCc2ncccc2[C@@H]1c1ccc(Cl)cc1 — recorded IC50 = 2.2

* * *

# protocol.notes: Apparent permeability across basolateral to apical side in human Caco2 cells at 2 uM after 2 hrs by LC-MS/MS analysis
# Format: ADME, cell-based
# experimental.context: Caco-2
quantity.measured: Papp B→A at 2 h, 2 µM (×10⁻⁶ cm/s)

P: O=C(Nc1cnc(Oc2ccc(F)cc2)nc1)N1CCc2ncccc2[C@@H]1c1ccc(F)cc1 [BAY-899]
Q: O=C(Nc1ccc(Oc2ccc(F)cc2)cc1)N1CCc2ncccc2[C@@H]1c1ccc(Cl)cc1
stdin: # compare Papp B→A at 2 h, 2 µM for P vs Q ; return the one with the smaller value Lab log: write the label of the selected item as the result.
stdout: Q

* * *

# protocol.notes: Fraction unbound in female rat at 4.5 to 72 mg/kg, po administered once daily for 8 days
# Format: ADME, organism-based
# experimental.context: in vivo
quantity.measured: fraction unbound at 192 h
// keep it numeric: no unit symbol after the value

Entry O=C(Nc1ccc(Oc2ccc(F)cc2)cc1)N1CCc2ncccc2[C@@H]1c1ccc(Cl)cc1 — recorded fraction unbound at 192 h = 0.0024

* * *

# protocol.notes: Apparent permeability across apical to basolateral side in human Caco2 cells at 2 uM after 2 hrs by LC-MS/MS analysis
# Type: ADME, cell-based
# experimental.context: Caco-2
quantity.measured: Papp A→B at 2 h, 2 µM (×10⁻⁶ cm/s)

A: O=C(Nc1cnc(Oc2ccc(F)cc2)nc1)N1CCc2ncccc2[C@@H]1c1ccc(F)cc1 [BAY-899]
B: O=C(Nc1ccc(Oc2ccc(F)cc2)cc1)N1CCc2ncccc2[C@@H]1c1ccc(Cl)cc1
stdin: Between A and B , which one shows the larger Papp A→B at 2 h, 2 µM value? Lab log: write the label of the selected item as the result.
stdout: A
(A: 8.9 ×10⁻⁶ cm/s, B: 1.5 ×10⁻⁶ cm/s)

* * *

# protocol.notes: Volume of distribution at steady state in Wistar rat at 0.5 mg/kg, iv after 2 to 72 hrs by LC-MS/MS analysis
# Type: ADME, organism-based
# experimental.context: in vivo, read-out: Vdss
quantity.measured: Vd (L/kg)

P: O=C(Nc1ccc(Oc2ccc(F)cc2)cc1)N1CCc2ncccc2[C@@H]1c1ccc(Cl)cc1
Q: O=C(Nc1cnc(Oc2ccc(F)cc2)nc1)N1CCc2ncccc2[C@@H]1c1ccc(F)cc1
stdin: # compare Vd for P vs Q ; return the one with the smaller value Lab log: write the label of the selected item as the result.
stdout: P
(P: 1.8 L/kg, Q: 16 L/kg)

* * *

# protocol.notes: Maximum oral bioavailability in Han Wistar rat hepatocytes at 1 uM measured after 2 to 90 mins by LC-MS/MS analysis
# Format: ADME, Hepatocyte
# experimental.context: read-out: Fmax
quantity.measured: Fh at 1 µM (%)

>>> number("O=C(Nc1ccc(Oc2ccc(F)cc2)cc1)N1CCc2ncccc2[C@@H]1c1ccc(Cl)cc1")
74
>>> number("O=C(Nc1cnc(Oc2ccc(F)cc2)nc1)N1CCc2ncccc2[C@@H]1c1ccc(F)cc1")
68

* * *

# protocol.notes: Tmax in Wistar rat at 2 mg/kg, po after 8 to 72 hrs by LC-MS/MS analysis
# Format: ADME, organism-based
# experimental.context: in vivo
quantity.measured: Tmax (h)

I: O=C(Nc1cnc(Oc2ccc(F)cc2)nc1)N1CCc2ncccc2[C@@H]1c1ccc(F)cc1 [BAY-899]
II: O=C(Nc1ccc(Oc2ccc(F)cc2)cc1)N1CCc2ncccc2[C@@H]1c1ccc(Cl)cc1
stdin: Between I and II , which one shows the larger Tmax value? Lab log: write the label of the selected item as the result.
stdout: II

* * *

// values below are reported IC50
# experimental.system: UniProt P16473
# Sequence (P16473 whole entry): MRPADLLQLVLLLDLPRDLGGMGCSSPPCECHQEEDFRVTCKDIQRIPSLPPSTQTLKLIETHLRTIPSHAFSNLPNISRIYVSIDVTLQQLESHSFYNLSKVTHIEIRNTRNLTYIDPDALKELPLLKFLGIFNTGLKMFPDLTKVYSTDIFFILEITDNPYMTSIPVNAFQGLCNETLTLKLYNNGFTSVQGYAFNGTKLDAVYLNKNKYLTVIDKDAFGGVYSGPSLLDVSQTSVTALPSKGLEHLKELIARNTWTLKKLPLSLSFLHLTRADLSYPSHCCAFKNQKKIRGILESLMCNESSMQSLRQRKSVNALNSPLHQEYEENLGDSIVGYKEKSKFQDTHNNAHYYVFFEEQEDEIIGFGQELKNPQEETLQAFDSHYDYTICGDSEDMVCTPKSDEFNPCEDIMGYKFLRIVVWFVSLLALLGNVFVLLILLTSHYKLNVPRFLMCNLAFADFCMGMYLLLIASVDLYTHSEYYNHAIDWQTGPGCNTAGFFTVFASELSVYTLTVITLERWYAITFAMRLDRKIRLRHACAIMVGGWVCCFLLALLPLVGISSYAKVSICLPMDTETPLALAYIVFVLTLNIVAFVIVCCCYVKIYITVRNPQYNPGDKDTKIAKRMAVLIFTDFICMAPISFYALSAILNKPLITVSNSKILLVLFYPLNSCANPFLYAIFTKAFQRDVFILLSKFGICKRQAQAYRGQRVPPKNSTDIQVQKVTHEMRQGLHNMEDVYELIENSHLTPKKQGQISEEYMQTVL
# protocol.notes: Antagonist activity at human thyroid stimulating hormone receptor expressed in rat HTC133 cells assessed as reduction in agonist-induced cAMP production preincubated for 20 mins followed by agonist solution addition and measured after 60 mins by cell based TR-FRET assay

Worked set:
>>> result("COc1ccc(C2c3ccsc3CCN2C(=O)Nc2cc(Cl)cc(Cl)c2)cc1 (racemic)")
"> 30 µM"
>>> result("COc1ccc([C@@H]2c3ccsc3CCN2C(=O)Nc2cc(Cl)cc(Cl)c2)cc1")
"> 30 µM"

Please find the next molecule below.
Entry COc1ccc([C@H]2c3ccsc3CCN2C(=O)Nc2cc(Cl)cc(Cl)c2)cc1 — recorded IC50 = > 30 µM

* * *

# protocol.notes: Clearance in human liver microsomes at 1 uM measured after 2 to 60 mins in presence of glucose-6-phosphate by LC-MS/MS analysis
# Type: ADME, Microsome
quantity.measured: CLhep predicted at 1 µM (mL/min/kg)

A: COc1ccc(C2c3ccsc3CCN2C(=O)Nc2cc(Cl)cc(Cl)c2)cc1 (racemic)
B: O=C(Nc1ccc(F)c(OC(F)(F)F)c1)N1CCc2sccc2C1c1ccc(Cl)cc1 (racemic)
C: O=C(Nc1ccc(Oc2ccc(F)cc2)cc1)N1CCc2ncccc2[C@@H]1c1ccc(F)cc1
stdin: Task for the reader: rank each entry by its CLhep predicted at 1 µM, from the minimum upward. Reply: labels, ordered per the request.
stdout: C, B, A

Values were extracted from ChEMBL document CHEMBL4321836.
